# assayComment: Phase 1/2 clinical study, plasma pharmacokinetic evaluation
# Assay type: in vivo, human
# condition: human, plasma, oral, 40 mg, 40 mg BID Arm A, C1D1, N=2, mean
readoutLabel: Tmax
A bare number is not enough; add the unit after it.

I am curious: what Tmax value has been reported for C=C1C[C@@H]2CC[C@H]1[C@@H](C(=O)N1CCC3(CC1)CN(c1ncncc1Oc1ccc(F)cc1C(=O)N(C(C)C)C(C)C)C3)N2 ? 1.25 h

###

# assayComment: Phase 1/2 clinical study, plasma pharmacokinetic evaluation
# Assay type: in vivo, human
# condition: human, plasma, oral, 100 mg, Cycle 2 Day 1; 100 mg BID Arm A (without azole); N=1
readoutLabel: Cmax (ng/mL)
Reply with just the number (in ng/mL).

Which Cmax is reported for this compound? C=C1C[C@@H]2CC[C@H]1[C@@H](C(=O)N1CCC3(CC1)CN(c1ncncc1Oc1ccc(F)cc1C(=O)N(C(C)C)C(C)C)C3)N2 2840

###

# assayComment: Phase 1/2 clinical study, plasma pharmacokinetic evaluation
# Format: in vivo, human
# condition: human, plasma, oral, 100 mg, Cycle 2 Day 1; 100 mg BID Arm B (with azole); N=4; mean
readoutLabel: AUC(0-t) (ng·h/mL)
Write the answer as a number in ng·h/mL, unit excluded.

# get_value(readout='AUC(0-t)', item= C=C1C[C@@H]2CC[C@H]1[C@@H](C(=O)N1CCC3(CC1)CN(c1ncncc1Oc1ccc(F)cc1C(=O)N(C(C)C)C(C)C)C3)N2 ) 8350

###

# assayComment: Phase 1/2 clinical study, plasma pharmacokinetic evaluation
# Format: in vivo, human
# condition: human, plasma, oral, 60 mg, 60 mg BID Arm B, C1D1, N=6, mean; read-out: t1/2 (converted)
# Procedure: In the present test of the present compound, PK samples have been collected in up to 24 patients dosed in dose groups of 40, 80, 100, and 120 mg BID Arm A, and in dose groups of 40 and 60 mg BID Arm B (Table 6). Large preliminary PK inter-patient variability was observed. (1) In the present study, PK samples have been collected in up to 42 patients dosed in dose groups of 40, 80, 100, 120, 140 and 200 mg BID Arm A, and in dose groups of 40, 60, 100, and 200 mg BID Arm B (Table 15). […]
readoutLabel: half-life
Please give the number followed by its unit.

What half-life value was documented for this compound, C=C1C[C@@H]2CC[C@H]1[C@@H](C(=O)N1CCC3(CC1)CN(c1ncncc1Oc1ccc(F)cc1C(=O)N(C(C)C)C(C)C)C3)N2 ? 2.61 h
